# targetSystem: cGMP-specific 3',5'-cyclic phosphodiesterase PDE5 (Cavia porcellus)
# procedureSummary: Inhibition of Phosphodiesterase 5 of guinea pig lung
pIC50: −log10 of the molar value.

smilesRecord	pIC50
COc1cc2cc(CO)c(CO)c(-c3ccnc(-n4nc(-c5ccccn5)c5ccccc5c4=O)c3)c2cc1OC	5.05
CCOc1cc2cc(CO)c(CO)c(-c3ccnc(-n4nc(-c5cccnc5)c5ccccc5c4=O)c3)c2cc1OC	6.00
CCOc1cc2cc(CO)c(CO)c(-c3ccnc(-n4nc(-c5cccnc5)c5ccccc5c4=O)c3)c2cc1OCC	6.70
COc1cc2cc(CO)c(CO)c(-c3ccnc(-n4ccc(=O)c5ccccc54)c3)c2cc1OC	4.70
